# Protocol: RT-S9 substrate depletion assay, individual compounds, with IVIVE
Reported kB-S9, biotransformation rate constant from in vitro RT-S9 assay values for a set of molecules
Property label: kB-S9, biotransformation rate constant from in vitro RT-S9 assay

[[record]]
molecule = "CCCCCCCCCCCCCCCCS(=O)(=O)O [C16SO3, hexadecylsulfonate]"
assay_result = "0.002 ^h h^–1"

[[record]]
molecule = "CCCCCCCCCCc1ccc(S(=O)(=O)O)cc1 [C10-1-LAS, 1-n-(p-sulfophenyl)decane]"
assay_result = "0.041 (0.037–0.045) h^–1"

[[record]]
molecule = "CCCCCCCCCCCCCCS(=O)(=O)O [C14SO3, tetradecylsulfonate]"
assay_result = "0.002 ^h h^–1"

[[record]]
molecule = "CCCCCCCCCCCCCS(=O)(=O)O [C13SO3, tridecylsulfonate]"
assay_result = "0.032 (0.028–0.036) h^–1"

[[record]]
molecule = "CCCCCCCCCCCS(=O)(=O)O [C11SO3, undecylsulfonate]"
assay_result = "0.225 (0.21–0.24) h^–1"

[[record]]
molecule = "CCCCCCCCCCCCCOS(=O)(=O)O [C13SO4, tridecylsulfate]"
assay_result = "0.028 (0.022–0.034) h^–1"

[[record]]
molecule = "CCCCCCCCCCCOS(=O)(=O)O [C11SO4, undecylsulfate]"
assay_result = "0.151 (0.136–0.166) h^–1"

[[record]]
molecule = "CCCCCCCCCCCCOCCOCCOCCOCCOS(=O)(=O)O [C12-EO4-SO4, dodecyltetraethoxysulfate]"
assay_result = "0.084 (0.059–0.109) h^–1"

[[record]]
molecule = "CCCCCCCCCCS(=O)(=O)O [C10SO3, decylsulfonate]"
assay_result = "0.366 (0.33–0.40) h^–1"


---

# Protocol: In vivo bioconcentration experiment with a mixture of anionic surfactants, flow-through aquaria, 10 °C, pH 7.8
# Parameters: species or system rainbow trout
# Run conditions: rainbow trout, whole fish homogenate, other: waterborne exposure in flow-through aquaria, 26 μg L^–1, pH 7.8, exposure phase, 3 h; individual fish
Property label: concentration at 3 h

[[record]]
molecule = "CCCCC(CC)COC(=O)CC(C(=O)OCC(CC)CCCC)S(=O)(=O)O (stereo not shown) [DOSS, bis(2-ethylhexyl)sulfosuccinate]"
assay_result = "14.9 ng/g"


---

Reported Uptake rate constant kU values for a set of compounds
# Test system: rainbow trout
# Protocol: In vivo bioconcentration experiment with a mixture of anionic surfactants, flow-through aquaria, 10 °C, pH 7.8;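 on Uptake rate constant kU: L kg-1 h-1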
# Run conditions: measured concentrations in water, simpler estimation method (Text S3); 95% confidence intervals in brackets
Property label: Uptake rate constant kU

[[record]]
compound = "CCCCCCCCCCCOS(=O)(=O)O [C11SO4, undecylsulfate]"
assay_result = "0.133 (27) L kg-1 ww h-1"

[[record]]
compound = "CCCCCCCCCCc1ccc(S(=O)(=O)O)cc1"
assay_result = "0.67 (8) L kg-1 ww h-1"

[[record]]
compound = "CCCCCCCCCCCCCCCCS(=O)(=O)O [C16SO3, hexadecylsulfonate]"
assay_result = "10.8 (10) L kg-1 ww h-1"

[[record]]
compound = "CCCCCCCCCCCCCOS(=O)(=O)O [C13SO4, tridecylsulfate]"
assay_result = "1.64 (15) L kg-1 ww h-1"

[[record]]
compound = "CCCCC(CC)COC(=O)CC(C(=O)OCC(CC)CCCC)S(=O)(=O)O (stereo not shown) [DOSS, bis(2-ethylhexyl)sulfosuccinate]"
assay_result = "0.088 (9) L kg-1 ww h-1"

[[record]]
compound = "CCCCCCCCCCCCCCS(=O)(=O)O [C14SO3, tetradecylsulfonate]"
assay_result = "0.73 (6) L kg-1 ww h-1"

[[record]]
compound = "CCCCCCCCCCCCOCCOCCOCCOCCOS(=O)(=O)O [C12-EO4-SO4, dodecyltetraethoxysulfate]"
assay_result = "0.090 (12) L kg-1 ww h-1"

